Overview of reported hERG current change (%, negative = inhibition) at 10uM across a group of compounds:
biological target: human ether-à-go-go-related gene (hERG) potassium channel (human, UniProt Q12809); assay: primary screen, population patch clamp on CHO cells stably expressing hERG; higher = less effect of the substance;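 also: peak tail current of the secondary pulse compared with the same well before compound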
Sequence (Q12809 whole entry, looked up): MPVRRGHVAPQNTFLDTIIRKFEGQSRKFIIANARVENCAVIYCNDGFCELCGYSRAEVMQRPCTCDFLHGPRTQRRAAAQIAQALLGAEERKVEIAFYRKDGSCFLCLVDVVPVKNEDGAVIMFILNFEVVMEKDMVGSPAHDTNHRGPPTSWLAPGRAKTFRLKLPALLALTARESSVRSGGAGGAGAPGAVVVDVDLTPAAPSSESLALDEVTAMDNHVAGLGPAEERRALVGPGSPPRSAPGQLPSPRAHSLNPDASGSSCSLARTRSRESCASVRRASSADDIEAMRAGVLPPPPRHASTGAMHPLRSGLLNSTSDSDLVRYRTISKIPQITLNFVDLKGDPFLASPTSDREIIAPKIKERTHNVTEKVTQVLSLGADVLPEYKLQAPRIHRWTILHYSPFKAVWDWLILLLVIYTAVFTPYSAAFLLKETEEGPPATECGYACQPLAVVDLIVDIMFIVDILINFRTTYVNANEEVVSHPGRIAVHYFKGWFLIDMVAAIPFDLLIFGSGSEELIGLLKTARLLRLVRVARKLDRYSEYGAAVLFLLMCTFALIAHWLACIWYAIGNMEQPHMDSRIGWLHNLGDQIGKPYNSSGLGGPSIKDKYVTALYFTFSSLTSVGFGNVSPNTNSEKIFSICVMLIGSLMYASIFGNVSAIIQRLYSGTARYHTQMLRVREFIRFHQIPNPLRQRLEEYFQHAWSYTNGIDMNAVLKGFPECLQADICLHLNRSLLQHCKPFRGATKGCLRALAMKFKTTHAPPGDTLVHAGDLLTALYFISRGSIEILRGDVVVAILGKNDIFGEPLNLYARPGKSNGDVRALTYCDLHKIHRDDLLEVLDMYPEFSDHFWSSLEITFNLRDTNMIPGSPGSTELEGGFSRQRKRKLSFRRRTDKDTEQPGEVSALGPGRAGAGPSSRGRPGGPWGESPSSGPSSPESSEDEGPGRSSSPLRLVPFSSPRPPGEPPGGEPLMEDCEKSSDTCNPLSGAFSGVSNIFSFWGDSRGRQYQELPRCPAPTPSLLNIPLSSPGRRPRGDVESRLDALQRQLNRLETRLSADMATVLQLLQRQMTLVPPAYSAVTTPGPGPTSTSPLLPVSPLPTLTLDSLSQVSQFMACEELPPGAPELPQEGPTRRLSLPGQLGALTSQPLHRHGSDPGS
About 14,000 (4.5%) of roughly 310,000 compounds showed an effect of 50% or more. Effects have a minus sign here. The full list was thinned out, with strong results kept by preference.
Lab book: enter the figure in %, no units written.

Consider the worked cases shown below.
1. Cn1cc(CNCc2ccccc2OCC(O)CN2CCc3ccccc3C2)cn1 (centres unmarked) :: -0.11
2. CCCc1cc(=O)[nH]c(SCC(=O)c2c(N)n(C3CC3)c(=O)[nH]c2=O)n1 :: 6.85
3. OC(COc1ccccc1CNCc1cccnc1)CN1CCc2ccccc2C1 (centres unmarked) :: -34.2
4. COc1cccc(-c2nn(-c3ccccc3)cc2CN(C)Cc2c(C)nc3ccccn23)c1 :: -59.9
5. CN(Cc1ncc[nH]1)Cc1cn(-c2ccccc2)nc1-c1ccc2c(c1)OCO2 :: -60.1
6. CN(Cc1ccccn1)Cc1cn(Cc2ccccc2)nc1-c1ccc2c(c1)OCO2 :: -20.6
7. CCOc1ccc(OCC(O)CN2CCc3ccccc3C2)cc1.Cl (centres unmarked) :: -66.3
8. CSCC(C)N1CCC(CCC(=O)NC2CC2)CC1 (centres unmarked) :: -18.1
9. Cc1cc(=O)oc2cc(OCC(O)CN3CCc4ccccc4C3)ccc12 (centres unmarked) :: -31.7
10. COc1cccc(-c2nn(-c3ccccc3)cc2CN(C)Cc2ccno2)c1 :: 3.65

Task: Returns the measured hERG current change (%, negative = inhibition) at 10uM for the input compound. Input: CSc1nnc2c(n1)OC(c1cccn1C)N(C(C)=O)c1ccccc1-2 (centres unmarked)
Output: -10.1

Task: Returns the measured hERG current change (%, negative = inhibition) at 10uM for the input compound. Input: CCn1ccnc1CN(C)Cc1cn(-c2ccccc2)nc1-c1ccc(OC)cc1F
Output: -44.9

Task: Returns the measured hERG current change (%, negative = inhibition) at 10uM for the input compound. Input: CCC(=O)c1ccc(OCC(O)CN2CCc3ccccc3C2)cc1.Cl (centres unmarked)
Output: -63.7

Task: Returns the measured hERG current change (%, negative = inhibition) at 10uM for the input compound. Input: COc1ccc(-c2nn(-c3ccccc3)cc2CN(C)CCn2ccnc2C)c(F)c1
Output: -57.6

Task: Returns the measured hERG current change (%, negative = inhibition) at 10uM for the input compound. Input: Cc1cc(OCC(O)CN2CCc3ccccc3C2)ccc1Cl.Cl (centres unmarked)
Output: -53.4

* * *

Overview of reported hERG current change (%, negative = inhibition) at 10uM across a group of compounds:
molecular target: human ether-à-go-go-related gene (hERG) potassium channel (human, UniProt Q12809); experiment: primary screen, population patch clamp on CHO cells stably expressing hERG; higher = less effect of the substance;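 also: peak tail current of the secondary pulse compared with the same well before compound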
About 14,000 (4.5%) of roughly 310,000 compounds showed an effect of 50% or more. The effect is printed as a negative number. The sample as a whole holds a higher share of strong results than the screen did.
Answer with the value and then the unit.

Consider the worked cases shown below.
1) O=c1[nH]c(CSc2nnc(COc3ccccc3)n2-c2ccccc2)nc2ccccc12 :: -4.92%
2) CCOC(=O)N/N=C(\C)c1ccc(Oc2ncccn2)cc1 :: 17.1%
3) COc1cccc(OC)c1OCCCCN1CCC(Cc2ccccc2)CC1.O=C(O)C(=O)O :: -81.9%
4) CC(=O)CCc1ccc(OCCCCN2CCC(Cc3ccccc3)CC2)cc1.O=C(O)C(=O)O :: -79.5%
5) O=C(Nc1nccs1)c1ccc(S(=O)(=O)N2CCCCC2)cc1 :: 3.29%

Task: Returns the measured hERG current change (%, negative = inhibition) at 10uM for the input compound. Input: COc1cccc(OC)c1OCCCCCCN1CCN(C)CC1.Cl
Output: 8.54%

Task: Returns the measured hERG current change (%, negative = inhibition) at 10uM for the input compound. Input: COc1ccc(NC(=O)CSc2nccn2Cc2ccccc2)cc1
Output: -4.86%

Task: Returns the measured hERG current change (%, negative = inhibition) at 10uM for the input compound. Input: O=C(CCC1CCCCC1)NNC(=O)c1cnccn1
Output: -4.92%

Task: Returns the measured hERG current change (%, negative = inhibition) at 10uM for the input compound. Input: Cc1ccc(C(=O)CCC(=O)OCC(=O)Nc2ccc3[nH]c(=O)[nH]c3c2)cc1
Output: 14%

Task: Returns the measured hERG current change (%, negative = inhibition) at 10uM for the input compound. Input: COc1cccc(OC)c1OCCCN1CCC(Cc2ccccc2)CC1.O=C(O)C(=O)O
Output: -80.6%

Where do the numbers come from? From paper PMC4336329.
